All values here come from PubChem BioAssay (NCI).

Assign TGI to each entry below.
test system: SK-MEL-2 melanoma; experiment: NCI tumour cell line growth inhibition, 48 h
// note: answer is a bare numeric in µM

Task: Recorded TGI for CN(C)CCCNc1ccnc2cc([N+](=O)[O-])ccc12 , please?
Result: 29.7

Task: # repeat for CCOC(=O)C(=Cc1cc(OC)ccc1OC)C(=O)OCC
Result: 18.1

Task: CCOC(=O)CCC(C(=O)OCC)n1nnc2ccc(Nc3c(C)[n+]([O-])c4cc(Cl)ccc4[n+]3[O-])cc21 (stereo not given) , same question.
Result: 57

Task: Then Cc1ncc(C(=O)Nc2ccc(CN3CCN(C)CC3)c(C(F)(F)F)c2)cc1C#Cc1cnc(N)c2ncccc12 ?
Result: 0.747

Task: What about this compound? c1ccc(-c2nnc(Nc3ccc4c(c3)OCCO4)o2)c(NCc2ccncc2)c1
Result: 22.3
